B1: library; a variant is named by its letters at N, in order (parent)
chain: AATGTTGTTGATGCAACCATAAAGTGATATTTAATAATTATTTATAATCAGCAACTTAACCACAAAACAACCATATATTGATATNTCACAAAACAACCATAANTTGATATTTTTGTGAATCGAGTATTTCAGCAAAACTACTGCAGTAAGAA

Variants of: B1
Experiment: relative integration efficiency (T-LR orientation) vs wild-type transposon end (log2 (normalized fold change)); transposon end mutated: left end; higher = more efficient transposition
Conditions: with VchCAST RNA-guided transposition machinery (E. coli BL21(DE3) host, lacZ target)
# relative integration efficiency (log2) per entry
Recorded endpoint: relative integration efficiency (log2)

INSERT INTO measurements (variant_designation, measurement) VALUES
  ('CG A47G', -0.05),
  ('CG A53G', 0.388),
  ('CG C121A G122T A123C G124T T125G', 0.905),
  ('CG T28G T82G T108G', -3.23),
  ('CG T114G', -0.0542),
  ('CG C87A A88C', 0.256),
  ('TA A16C G24T T32G A33C T76A T78A T84A C87A A96C T110A T113A', -0.572),
  ('CG T32G A33C T86G C87A T112G T113G', -0.849),
  ('CG T86C', 0.176),
  ('CA A22T G24T T31C A33C T104G T113A', -0.697),
  ('CG T42C', 0.252),
  ('CG T78G T79G', 0.377),
  ('CG A62T C63G A64T A65T', 0.238),
  ('CG A70C C71A', -1.75),
  ('CG T48C', -0.224),
  ('CG C97A C98A', -1.76),
  ('CG A46C A47C T48G C49A', -2.09),
  ('TA A22T G24T T31C A33C T76A T78A T84A C87A A102T T111C T113C', -0.838),
  ('TA A16C G24T T30A T76A A77G C87T T104A T110A T113A', -0.222),
  ('CG T110A T111A', -0.344),
  ('CG A37C', 0.0561),
  ('CG T39G A40C T41G T42G', 0.352),
  ('CG A15G', -0.118),
  ('GG T86A', 0.153),
  ('CG A90C', -0.155),
  ('CG C87G A88T C89G A90T', 0.251),
  ('CA G24A T30A T104G T113A', -0.317),
  ('TA A23G G24T A33T T76A A77G C87T A96C T110A T113A', -0.603);
